Reference source for all entries: PubChem BioAssay (EPA / NIEHS)

test: BSK_KF3CT_SRB: Viability Assessment in the BioMAP Diversity Plus: KF3CT Assay (AID 2283069); conditions: primary human keratinocytes with fibroblasts;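 also: total protein by sulforhodamine B staining as a cytotoxicity measure; read 24 h after compound addition; fitted for both signal gain and loss against DMSO baseline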
Activity calls are given as the source filed them. The calls were made as follows: active = hit-call score of the fitted dose curve at least 0.9, where 1 is the maximum; inactive = score below 0.9.
reported property: AC50

INSERT INTO measurements (compound, reported_property, recorded_measurement) VALUES
  ('CC(C)c1cccc(C(C)C)c1N1C(=O)c2ccc(O)cc2C1=O', 'AC50', '29.1 µM (active)'),
  ('Cc1ccc(O)cc1', 'AC50', 'inactive'),
  ('COc1cccc(-c2ccc(/C=C\CN3CCCCCC3)cc2Cl)c1', 'AC50', '30.6 µM (active)'),
  ('CCCN(C1CCN(C(=O)C2CCNCC2)CC1)[C@@H]1CCc2ccc(OC)cc2C1', 'AC50', 'inactive'),
  ('CC(C)=CCC/C(C)=C\CO', 'AC50', 'inactive');

I'm hoping you can list AC50 for every compound here, please.
1. On1ccccc1=S
2. O=c1n(CC2CO2)c(=O)n(CC2CO2)c(=O)n1CC1CO1 (stereo not drawn)
3. C1N2CN3CN1CN(C2)C3
4. O=C(O)CCN(C1(C(=O)NO)CCCC1)S(=O)(=O)c1ccc(Oc2ccc(F)cc2)cc1

output:
6.33 µM (active)
inactive
inactive
inactive

I'm hoping you can list AC50 for every compound here, please.
1. CC/C(=C\C(=N/O)C(N)=O)C(C)[N+](=O)[O-] (stereo not drawn)
2. COc1ccc2sc(C(=O)Nc3nnn[nH]3)c(OC(C)C)c2c1
3. CCN(C(=O)c1cc(C)cc(OC[C@H](C)Nc2ccncc2)c1)C(C)C
4. COCCOc1cc2cc(C(=O)NC3CCN(C(C)C)CC3)n(CC(=O)Nc3ccc(Cl)cn3)c2cn1

output:
1: inactive; 2: 26.1 µM (active); 3: inactive; 4: inactive
